# IC50 per record follows
Test system: LB2518-MEL;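 also: growth inhibition of human LB2518-MEL cells, measured with a cell viability assay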
assay.protocol: cells
Assay type: functional, cell-based, Homo sapiens
test.parameters: Homo sapiens, LB2518-MEL
Description: SANGER: Inhibition of human LB2518-MEL cell growth in a cell viability assay.
Counter-ions that a name gives are not always drawn.

{"compound": "OCCCNc1cc(-c2ccnc(Nc3cccc(Cl)c3)n2)ccn1", "IC50": "> 256 nM"}
{"compound": "Nc1ccn([C@@H]2O[C@H](CO)[C@@H](O)C2(F)F)c(=O)n1 [GEMCITABINE]", "IC50": "64.5 nM"}
{"compound": "CC(=O)O[C@H]1C(=O)[C@@]2(C)[C@H]([C@H](OC(=O)c3ccccc3)[C@]3(O)C[C@H](OC(=O)[C@H](O)[C@@H](NC(=O)c4ccccc4)c4ccccc4)C(C)=C1C3(C)C)[C@]1(OC(C)=O)CO[C@@H]1C[C@@H]2O [PACLITAXEL]", "IC50": "81.4 nM"}
{"compound": "COC1=CC(c2cc3ccccc3[nH]2)=N/C1=C\\c1[nH]c(C)cc1C [OBATOCLAX MESYLATE]", "IC50": "234 nM"}
{"compound": "CC(C)c1ccccc1Cc1cc(C(=O)Nc2ccc(S(=O)(=O)c3ccccc3C(C)(C)C)cc2)c(O)c(O)c1O", "IC50": "178 nM"}
{"compound": "Cc1cn(-c2cc(NC(=O)c3ccc(C)c(Nc4nccc(-c5cccnc5)n4)c3)cc(C(F)(F)F)c2)cn1 [NILOTINIB]", "IC50": "> 2000 nM"}
